biological target: recombinant CaMKIIδ (Homo sapiens (Human), UniProt Q13557); assay: CaMKIIδ biochemical assay (HTRF); details: 10 pM CaMKIIδ, 110 nM calmodulin, 12 μM ATP, 1 hour; read-out: CAMKIID-HTRF-384V2 (IC50 - nM)
Recorded IC50 by entry

compound: CCN(CC(F)F)[C@@H](C)CNC(=O)c1ccnc(-c2cnn3ccc(-c4cccs4)nc23)c1 [Example 15]
IC50 [nM]: 8.34
//
compound: CCN(CC)[C@@H](C)CNC(=O)c1cc(NCCS(N)(=O)=O)nc(-c2cnn3ccc(-c4cccs4)nc23)c1 [Example 242]
IC50 [nM]: 0.07
//
compound: COc1cc(C(=O)N2CC[C@H](N)C2)cc(-c2cnn3ccc(-c4cccs4)nc23)n1 [Example 110]
IC50 [nM]: 7.6
//
compound: CC[C@@]1(CNC(=O)c2ccnc(-c3cnn4ccc(-c5ccccc5)nc34)c2)CCCN1 [Example 75]
IC50 [nM]: 39.3
//
compound: CCN(CC)[C@@H](C)CNC(=O)c1cc(OCCc2cnccn2)nc(-c2cnn3ccc(-c4cccs4)nc23)c1 [Example 350]
IC50 [nM]: 0.31
//
compound: Nc1cc(C(=O)N2C3CCNCC2CC3)cc(-c2cnn3ccc(-c4cccs4)nc23)n1 (stereo not drawn) [Example 129]
IC50 [nM]: 1.55
//
compound: COc1cc(C(=O)N2CCCC[C@@H]2CN)cc(-c2cnn3ccc(-c4ccccc4)nc23)n1 [Example 132]
IC50 [nM]: 32.7
//
compound: CCN(CC)[C@@H](C)CNC(=O)c1cc(-c2cnn3ccc(-c4cccs4)nc23)nc(N2CC(C(C)(C)O)C2)c1 [Example 215]
IC50 [nM]: 0.22
//
compound: O=C(c1ccnc(-c2cnn3ccc(-c4ccccc4)nc23)c1)N1CCCC[C@@H]1[C@@H]1CCCN1 [Example 93]
IC50 [nM]: 27.8
//
compound: CCN(CC)[C@@H](C)CNC(=O)c1cc(NCC(N)=O)nc(-c2cnn3ccc(-c4cccs4)nc23)c1 [Example 238]
IC50 [nM]: 0.28
//
compound: CCCN[C@@H](C)CNC(=O)c1ccnc(-c2cnn3ccc(-c4cccs4)nc23)c1 [Example 23]
IC50 [nM]: 14.6
//
compound: CCN(CC)[C@@H](C)CNC(=O)c1ccnc(-c2cnn3ccc(-c4ccccc4)nc23)c1 [Example 38]
IC50 [nM]: 2.08
//
compound: CCN(CC)c1cc(C(=O)NC[C@H](C)N(CC)CC)cc(-c2cnn3ccc(-c4cccs4)nc23)n1 [Example 260]
IC50 [nM]: 1.71
//
compound: CCN(CC)[C@@H](C)CNC(=O)c1cc(O[C@H]2CCOC2)nc(-c2cnn3ccc(-c4cccs4)nc23)c1 [Example 345]
IC50 [nM]: 1.22
//
compound: CCN(CC)[C@@H](C)CNC(=O)c1cc(-c2cnn3ccc(-c4ccc(F)s4)nc23)nc(N2CC[C@H]2C(=O)NC)c1 [Example 361]
IC50 [nM]: 0.15
